Molecular target: KV7.2/7.3 (Homo sapiens, UniProt O43525+O43526)
Assay: Rb+ efflux high-throughput screening (ICR 8000)
PROPERTY_LABEL: EC50 (nM)

{"CPD_SMILES": "CCOC(=O)Nc1ccc(NCc2ccc(F)cc2)cc1N", "READOUT_UNIT": "nM", "VALUE": 180}
